Biological target: BCLXL WT (Homo sapiens (Human))
Sequence (Q07817 other isoform, or with tags, fused parts or gaps): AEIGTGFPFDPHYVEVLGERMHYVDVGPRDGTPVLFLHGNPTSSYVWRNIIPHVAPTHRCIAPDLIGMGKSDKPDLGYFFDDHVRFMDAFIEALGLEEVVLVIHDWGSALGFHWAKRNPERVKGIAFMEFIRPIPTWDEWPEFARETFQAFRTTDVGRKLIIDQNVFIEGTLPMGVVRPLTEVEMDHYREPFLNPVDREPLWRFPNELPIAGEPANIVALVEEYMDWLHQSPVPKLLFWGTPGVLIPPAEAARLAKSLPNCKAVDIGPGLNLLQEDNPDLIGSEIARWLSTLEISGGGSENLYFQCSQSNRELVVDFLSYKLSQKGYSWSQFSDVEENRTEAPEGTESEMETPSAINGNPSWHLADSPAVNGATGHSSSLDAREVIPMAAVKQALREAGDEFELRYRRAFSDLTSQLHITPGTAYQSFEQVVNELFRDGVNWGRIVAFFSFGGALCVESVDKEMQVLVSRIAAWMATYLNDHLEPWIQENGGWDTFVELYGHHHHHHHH
Test: TR-FRET competitive binding assay, BCLXL WT
Conditions: ratio Ki BCLxL / Ki BCL2 WT
Protocol: The relative binding potency of each compound was determined in a competitive binding assay using time resolved-fluorescence resonance energy transfer (TR-FRET). […] The degree of binding or corresponding compound inhibition can be quantified by the TR-FRET signal between the terbium donor and fluorescein acceptor. […] TR-FRET measurements were performed on a Biotek Synergy Neo plate reader. […] The TR-FRET signal was calculated as the emission-ratio at 520 nm over 495 nm. […]
Observed property: TR_FRET EKI BCLxL/WT selectivty ratio

{"columns": ["Compound", "TR_FRET EKI BCLxL/WT selectivty ratio"],
 "data": [
  ["Cc1c(N(C(=O)c2cc(-c3cc4c(cc3C(=O)N3Cc5ccccc5C[C@H]3CN3CCCCC3)CN(C(=O)Cc3ccc(OCCN(C)CC5COC5)cc3F)CC4)n(C)c2C)c2ccc(O)cc2)cc(C#N)n1C", 35.5],
  ["Cc1c(C(=O)N(c2ccccc2)c2cnn(C(F)F)c2)cc(-c2cc3c(cc2C(=O)N2Cc4ccccc4C[C@H]2CF)CN(C(=O)Cc2ccc(OCCN4CCOCC4)cc2)CC3)n1C", 351.4]
]}

Look at each compound and report its TR_FRET EKI BCLxL/WT selectivty ratio.
1. Cc1nn(C)cc1N(C(=O)c1cc(-c2cc3c(cc2C(=O)N2Cc4ccccc4C[C@H]2C)CN(C(=O)Cc2ccc(OCCN4CCOCC4)cc2F)CC3)n(C)c1C)c1ccccc1
2. Cc1c(N(C(=O)c2cc(-c3cc4c(cc3C(=O)N3Cc5ccccc5C[C@H]3CN3CCCCC3)CN(C(=O)Cc3ccc(OCCN5CCC(F)CC5)cc3F)CC4)n(C)c2C)c2ccc(O)cc2)cc(C#N)n1C
3. Cc1c(N(C(=O)c2cc(-c3cc4c(cc3C(=O)N3Cc5ccccc5C[C@H]3CN3CCCCC3)CN(C(=O)Cc3ccc(OCCN5CCOC[C@H]5C)cc3F)CC4)n(C)c2C)c2ccc(O)cc2)cc(C#N)n1C
4. Cc1c(N(C(=O)c2cc(-c3cc4c(cc3C(=O)N3Cc5ccccc5C[C@H]3C)CN(C(=O)Cc3ccc(N5CCN(CC(F)(F)F)CC5)cc3)CC4)n(C)c2C)c2ccc(O)cc2)cc(C#N)n1C
5. COCc1ccc(CC(=O)N2CCc3cc(-c4cc(C(=O)N(c5ccc(O)cc5)c5cc(C#N)n(C)c5C)c(C)n4C)c(C(=O)N4Cc5ccccc5C[C@H]4C)cc3C2)cc1

OUTPUT:
1. 507.9
2. 100.0
3. 62.8
4. 83.6
5. 10.8
